Data credit: patent US11208404B2

biological target: ALCAT1 (Homo sapiens (Human)); assay: In vitro acyltransferase assay for ALCAT1 inhibitors; assay type: biochemical; details: ALCAT1 enzyme activity; triplicates, GraphPad; read-out: IC50
Sequence (Q6UWP7 whole entry): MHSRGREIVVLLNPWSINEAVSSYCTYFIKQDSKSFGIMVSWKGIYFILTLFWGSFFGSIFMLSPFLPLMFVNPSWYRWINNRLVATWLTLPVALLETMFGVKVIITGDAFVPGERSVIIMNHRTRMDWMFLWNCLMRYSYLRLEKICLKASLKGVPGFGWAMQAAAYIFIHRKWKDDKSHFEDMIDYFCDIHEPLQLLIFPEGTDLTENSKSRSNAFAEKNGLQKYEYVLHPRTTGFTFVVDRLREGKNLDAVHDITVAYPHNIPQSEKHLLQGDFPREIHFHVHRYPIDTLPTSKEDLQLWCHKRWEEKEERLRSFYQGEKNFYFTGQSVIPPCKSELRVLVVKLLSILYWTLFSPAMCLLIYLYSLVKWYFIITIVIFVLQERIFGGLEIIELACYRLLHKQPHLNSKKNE
IC50 values for the compounds below.

| smiles | IC50 |
| --- | --- |
| COc1ccc(C)cc1C(=O)Nc1cccc(-c2nnc(-c3ccco3)o2)c1 | 79 nM |
| COc1ccc(C(F)(F)F)cc1C(=O)Nc1cc(-c2nnc(-c3ccco3)o2)ccc1F | 19 nM |
| O=C(Nc1ccccc1F)c1cccc(-c2nnc(-c3ccco3)o2)c1 | 990 nM |
| O=C(Nc1cccc(-c2nnc(-c3ccco3)o2)c1)c1cc(Br)ccc1F | 640 nM |
| O=C(Nc1cccc(-c2nnc(-c3ccco3)o2)c1)c1ccccc1OC(F)F | 120 nM |
| O=C(Nc1cc(-c2nnc(-c3ccco3)o2)ccc1F)c1cc(F)ccc1OCCF | 33 nM |
| COc1ccc(I)cc1C(=O)Nc1cccc(-c2nnc(-c3ccco3)o2)c1 | 110 nM |
| O=C(Nc1ccnc(-c2nnc(-c3ccco3)o2)c1)c1ccccc1F | 750 nM |
| Cc1ccc(OCCF)c(C(=O)Nc2cc(-c3nnc(-c4ccco4)o3)ccc2F)c1 | 38 nM |
| O=C(Nc1cc(-c2nnc(-c3ccco3)o2)ccc1F)c1cc(F)ccc1OCC(F)F | 34 nM |
| O=C(Nc1cccc(-c2nnc(-c3ccco3)o2)c1)c1cccc(Br)c1F | 330 nM |
| O=C(Nc1cc(-c2nnc(-c3ccco3)o2)ccc1F)c1ccccc1OCC(F)F | 29 nM |
| CCCOc1ccc(Br)cc1C(=O)Nc1cccc(-c2nnc(-c3ccco3)o2)c1 | 90 nM |
| Cc1ccc(OCC(F)F)c(C(=O)Nc2cc(-c3nnc(-c4ccco4)o3)ccc2F)c1 | 26 nM |
| O=C(Nc1cccc(-c2nnc(-c3ccco3)o2)c1)c1ccccc1Br | 4100 nM |
| CCOc1ccccc1C(=O)Nc1cc(-c2nnc(-c3ccco3)o2)ccc1F | 26 nM |
| CCOc1ccc(C)cc1C(=O)Nc1cccc(-c2nnc(-c3ccco3)o2)c1 | 67 nM |
| CCOc1ccc(CC)cc1C(=O)N(c1cc(-c2nnc(-c3ccco3)o2)ccc1F)P(=O)(O)O | 72 nM |
| COc1c(Cl)cccc1C(=O)Nc1cccc(-c2nnc(-c3ccco3)o2)c1 | 67 nM |
| O=C(Nc1cccc(-c2nnc(-c3ccco3)o2)c1)c1cccc(Br)c1 | 1900 nM |
| O=C(Nc1cccc(-c2nnc(-c3ccco3)o2)c1)c1cccc(F)c1F | 340 nM |
| O=C(Nc1cccc(-c2nnc(-c3ccco3)o2)c1)c1cccc(Cl)c1 | 2000 nM |
| COc1ccc(F)cc1C(=O)Nc1cccc(-c2nnc(-c3ccco3)o2)c1 | 210 nM |
| CCCOc1ccc(Cl)cc1C(=O)Nc1cccc(-c2nnc(-c3ccco3)o2)c1 | 87 nM |
| O=C(Nc1cccc(-c2nnc(-c3ccco3)o2)c1)c1cccc(Cl)c1Cl | 410 nM |
| CCCOc1ccc(Cl)cc1C(=O)Nc1cc(-c2nnc(-c3ccco3)o2)ccc1F | 25 nM |
| CCCOc1ccc(C)cc1C(=O)Nc1cc(-c2nnc(-c3ccco3)o2)ccc1F | 76 nM |
| O=C(Nc1cc(-c2nnc(-c3ccco3)o2)ccc1Cl)c1ccccc1F | 1800 nM |
| O=C(Nc1cccc(-c2nnc(-c3ccco3)o2)c1)c1ccccc1 | 3800 nM |
| O=C(Nc1cccc(-c2nnc(-c3ccco3)o2)c1)c1cc(F)c(F)cc1F | 130 nM |
| COc1ccc(Cl)cc1C(=O)Nc1cccc(-c2nnc(-c3ccco3)o2)c1 | 62 nM |
| COc1ccccc1C(=O)Nc1cccc(-c2nnc(-c3ccco3)o2)c1 | 130 nM |
| O=C(Nc1cc(-c2nnc(-c3ccco3)o2)ccc1F)c1cc(Cl)ccc1OC(F)(F)F | 20 nM |
| O=C(Nc1cccc(-c2nnc(-c3ccco3)o2)c1)c1ccccc1OCC(F)(F)F | 150 nM |
| O=C(Nc1cc(-c2nnc(-c3ccco3)o2)ccn1)c1ccccc1F | 93 nM |
